# Target under test: N-cadherin expressed on transfected 3T3 cells
# Experimental protocol: cell-based or functional assay
Readout: percent inhibition of neurite outgrowth, peptide at 100 µg/ml (%)
Number only, in %; omit the unit.

Study these solved cases before continuing.
# Binder, Uom, Quantitative readout
records = [
    ("H-LKIDPANGQI-OH [H-LKIDPANGQI-OH]", "%", 56.8),
    ("H-WLKIDPVNGQI-OH [H-WLKIDPVNGQI-OH]", "%", 76.1),
    ("H-LKIDAVNGQI-OH [H-LKIDAVNGQI-OH]", "%", 104),
]

Now for a further binder.
Query: State the recorded percent inhibition of neurite outgrowth, peptide at 100 µg/ml for this entry: Ac-WLKADAVNGQI-NH2 [N-Ac-WLKADAVNGQI-NH2]
Reply: 10.5
